experimental-system: Homeobox protein Hox-A13 (Mus musculus) (UniProt Q62424)
Sequence (Q62424 whole entry, looked up): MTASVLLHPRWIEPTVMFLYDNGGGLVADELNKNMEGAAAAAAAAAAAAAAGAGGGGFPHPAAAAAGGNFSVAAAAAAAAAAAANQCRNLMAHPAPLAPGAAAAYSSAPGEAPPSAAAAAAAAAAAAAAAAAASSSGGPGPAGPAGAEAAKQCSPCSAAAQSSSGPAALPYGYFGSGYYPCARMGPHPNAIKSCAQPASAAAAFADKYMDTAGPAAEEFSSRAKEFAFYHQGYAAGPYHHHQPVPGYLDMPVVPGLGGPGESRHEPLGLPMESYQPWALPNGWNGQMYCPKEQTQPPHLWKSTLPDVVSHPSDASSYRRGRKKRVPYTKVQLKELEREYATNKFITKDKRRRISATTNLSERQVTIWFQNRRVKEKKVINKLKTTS
experimental-protocol: disruptors of Hoxa13 oligonucleotide interaction – biochemical, fluorescence polarization, labeled oligonucleotide, primary screen (AID 1185)
experimental-parameters: Hoxa13:DNA binding, 15 min, higher = more signal, called active from +8 up or from −8 down
Rule: z-score under -4 gives Criterion not met, otherwise Criterion met.

COC(=O)C1(Cc2ccccc2)C=C2C(=C(C)C(=O)C2C)CN1 (centres undefined) :: Criterion not met
[N-]=[N+]=NCc1ccccc1[C@@H]1OC(c2ccc(OCCCO)cc2)=N[C@]1(Cc1ccccc1N=[N+]=[N-])C(=O)NCC(O)CO (some centres undefined) :: Criterion met
CC(C)(C)N1CC=CC23O[C@@H]4/C=C\CCCOC(=O)C4[C@H]2C(=O)N(CCCCCO)[C@@H]3C1=O (some centres undefined) :: Criterion not met
COCCOC(=O)N1C(=O)[C@@]2(c3cc(C#CCCO)ccc31)[C@H](c1ccccc1OCCO)N1[C@H](c3ccccc3)[C@H](c3ccccc3)OC(=O)[C@H]1[C@@H]2C(N)=O :: Criterion met
CCCCCC1=C2CNC(Cc3ccccc3)(C(=O)OC)C=C2C(C)C1=O (centres undefined) :: Criterion not met
COC(=O)[C@H](Cc1ccc(O)cc1)N[C@@H](/C=C/C1CC1)[C@H](O)Cc1ccccc1 :: Criterion not met
COc1ccc([Si](C)(C)[C@H]2[C@H](CCO)O[C@@]3(C(=O)N(Cc4cccc(N(C=O)c5ccccc5)c4)c4ccccc43)[C@@H]2C)cc1 :: Criterion met
CCCNC(=O)[C@@]1(c2ccc([N+](=O)[O-])cc2)CC(=O)N(C(C)C)[C@@H]1c1ccc(CO)cc1 :: Criterion met
C=CCC(OC(C)=O)[C@@H]1[C@@H](N(Cc2ccc(-c3ccccc3)cc2)C(=O)c2cccc3ccccc23)c2cc(OCCCO)ccc2N1C(=O)Cc1ccc(OC)cc1 (some centres undefined) :: Criterion met
C=C(C)[C@@H]1CC=C(C(O)C2C=CC3C(=O)N(C)C(=O)C3N2Nc2ccc([N+](=O)[O-])cc2[N+](=O)[O-])CC1 (some centres undefined) :: Criterion not met
O=C1O[C@@H](c2ccccc2)[C@@H](c2ccccc2)N2[C@@H](c3ccc(OCCO)cc3)[C@]3(C(=O)Nc4ccc(C#CC5(O)CCCCCC5)cc43)[C@@H](C(=O)Nc3nc4ccccc4s3)[C@H]12 :: Criterion met
CCCCCCc1nc(-c2ccc(-c3ccc(Cl)c(Cl)c3)o2)cc2c1[Si](C(C)C)(C(C)C)OC2 :: Criterion met
O=C1O[C@H](Cc2ccccc2)[C@@H]2[C@H]3C=CCCC=C3CN2[C@H]1Cc1ccc(O)cc1 :: Criterion not met
COC(=O)[C@@]1(Cc2ccc(OC)cc2)[C@H]2c3cc(C(=O)N4CCCC4)n(Cc4ccc(Cl)c(C(F)(F)F)c4)c3C[C@H]2CN1C(=O)c1ccccc1 :: Criterion met

----------
# composite z-score per entry
experimental-system: Streptavidin (Streptomyces avidinii)
experimental-protocol: compounds binding control protein streptavidin – biophysical, small-molecule microarray, 635/667 nm fluorescence, artefact control for SMM compound annotation, primary screen (AID 1147);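 further: signal reflects streptavidin binding to arrayed compounds as a control protein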
experimental-parameters: higher = more signal
measured-property: composite z-score

COc1ccc(C(O)C2C=CC3C(=O)NC(=O)C3N2Nc2ccc(Cl)cc2Cl)c2ccccc12 (configuration not stated) :: 0.767
C=CCNC(=O)[C@@H]1[C@H]2C(=O)O[C@H](c3ccccc3)[C@H](c3ccccc3)N2[C@H](c2ccc(OCCO)cc2)[C@@]12C(=O)Nc1ccc(C#CC3(O)CCCCCC3)cc12 :: 0.981
C=C(CCCC)C(=O)CC[C@@H](OC(=O)c1ccccc1-c1ccccc1C(=O)O)c1ccccc1OCCO :: -0.34
CN(C)C(=O)[C@]1(Cc2ccccc2)N=C(c2ccc(OCCCO)cc2)O[C@@H]1c1ccccc1CN=[N+]=[N-] :: 1.34
C=C(COC)/C(=C/C[C@@H](OC(C)=O)c1ccccc1OCCO)c1cnc2ccccc2c1 :: 0.219
COC(=O)C1(Cc2ccccc2)C=C2C(=C(C)C(=O)C2C)CN1 (configuration not stated) :: 0.621
C=CCOC(=O)[C@H]1[C@@H]2C(=O)O[C@@H](c3ccccc3)[C@@H](c3ccccc3)N2[C@@H](c2ccc(OCCOC(=O)[C@@H]3C[C@@H]4C(=O)N[C@@H](CCCC[N+](C)(C)C)C(=O)N4[C@@H]3c3ccc(O)cc3)cc2)[C@]12C(=O)Nc1ccc(I)cc12 :: 0.0756
